Where do the numbers come from? From the RNAGym collection of RNA variant scans (doi:10.7554/elife.80360).

B1: Hairpin Ribozyme (parent)
chain: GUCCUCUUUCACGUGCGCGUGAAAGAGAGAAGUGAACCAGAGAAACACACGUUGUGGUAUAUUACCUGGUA

- Variants of: B1
- experiment-summary: self-cleavage, relative activity (ratio to wild type); higher = more cleavage; co-transcriptional
Overview of reported self-cleavage across a group of variants:
// return a plain number; no unit text

## Input Given G13A A64C , state its recorded self-cleavage.
## Output 0.178

## Input For U7C C18G then?
## Output 0.732

## Input For U5C G54A then?
## Output 0.467
